B1: POLD4 (parent)
chain: ITDSYPVVKRREGPAGHSKGELAP

- Variants of: B1
- assay summary: protein stability index of a GFP-peptide fusion (GPS, HEK-293T) (PSI 1-6); higher = more stable;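 note: lentivirally expressed fusions sorted by FACS into six bins by GFP to DsRed ratio, PSI derived from sequencing read proportions per bin multiplied by bin number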
- study conditions: c terminus: a fixed tail appended
I'd be grateful if you could share measured protein stability index for these entries.

Completed entries (count: 5):
**Query** State the recorded protein stability index for this entry: T2F
**Result** 4.27

**Query** State the recorded protein stability index for this entry: R10V
**Result** 3.94

**Query** State the recorded protein stability index for this entry: V7I
**Result** 3.42

**Query** State the recorded protein stability index for this entry: S18K
**Result** 3.02

**Query** State the recorded protein stability index for this entry: I1A
**Result** 4.82

I have 4 variants here; please give me protein stability index for each one.
1. S4N
2. G16Y
3. Y5V
4. D3K

**Result**
[4.16, 2.39, 4.23, 3.89]

I have 6 variants here; please give me protein stability index for each one.
1. G16H
2. R11T
3. L22F
4. S18Q
5. V7N
6. T2V

**Result**
1: 3.08; 2: 3.33; 3: 3.27; 4: 3.65; 5: 4.2; 6: 3.36
